Reported pIC50 is given for each of the following compounds.
- Tested on: LTB4 Biosynthesis, Human PMNs
- measurement.notes: LTB4 biosynthesis inhibition in human PMNs
- Assay type: cell-based
- condition.notes: read-out: LTB4 Biosynthesis inhibition cells IC50, Human PMNs
pIC50: −log10 of the molar value.

# smi, system.tested, pIC50
records = [
    ("CCCCCCCCCCCCCC(=O)CC(=O)c1cccc(-c2nnn[nH]2)c1", "LTB4 Biosynthesis, Human PMNs", 5.52),
    ("CCCCCCCCCCCCCC(=O)CC(=O)c1ccc(C(=O)O)s1", "LTB4 Biosynthesis, Human PMNs", 5.57),
    ("CCCCCCCCCCCCCC(=O)CC(=O)c1cccc(C(=O)O)c1", "LTB4 Biosynthesis, Human PMNs", 5.92),
    ("CCCCCCCCCCCCCC(=O)CC(=O)c1ccc(C(=O)O)o1", "LTB4 Biosynthesis, Human PMNs", 5.46),
    ("O=C(CCCCCCCCCOc1ccccc1)CC(=O)c1ccc(C(=O)O)cc1", "LTB4 Biosynthesis, Human PMNs", 5.57),
]

Reference source: patent US5591756A
